// provenance: ChEMBL document CHEMBL2218924

# TARGET OR SYSTEM: Testis-specific serine/threonine-protein kinase 1 (Homo sapiens)
# Sequence (whole entry): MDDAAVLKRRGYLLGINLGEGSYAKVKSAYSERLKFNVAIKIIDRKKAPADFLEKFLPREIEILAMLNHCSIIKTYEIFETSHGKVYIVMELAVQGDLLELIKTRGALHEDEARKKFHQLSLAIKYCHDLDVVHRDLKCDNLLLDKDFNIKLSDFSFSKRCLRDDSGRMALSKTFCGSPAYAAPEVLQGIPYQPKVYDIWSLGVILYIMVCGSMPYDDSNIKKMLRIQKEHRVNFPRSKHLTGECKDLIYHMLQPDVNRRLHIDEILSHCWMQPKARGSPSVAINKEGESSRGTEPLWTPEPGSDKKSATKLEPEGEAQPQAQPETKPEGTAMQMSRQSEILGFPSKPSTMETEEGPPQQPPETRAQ
# RUN PARAMETERS: at 10 µM
READOUT LABEL: residual activity (%)
// note: answer is a bare numeric in %

Here are 3 compounds together with their reported answers.
O=C(O)c1ccc2c3c1cccc3c(=O)n1c3ccccc3nc21 : 79
CC(C)n1cnc2c(NCc3ccccc3)nc(NCCCO)nc21 : 89
CC(=O)O/N=C1\C(=C2\C(=O)Nc3cc(Br)ccc32)Nc2ccccc21 : 86

Looking up O=C(Nc1cccc(Nc2cc(Nc3cccc(C(F)(F)F)c3)ncn2)c1)C1CC1 , I found its residual activity recorded as 87

Consider CO[C@H]1C[C@@H]2CC[C@@H](C)[C@@](O)(O2)C(=O)C(=O)N2CCCC[C@H]2C(=O)O[C@H]([C@H](C)C[C@@H]2CC[C@@H](O)[C@H](OC)C2)CC(=O)[C@H](C)/C=C(\C)[C@@H](O)[C@@H](OC)C(=O)[C@H](C)C[C@H](C)/C=C/C=C/C=C/1C . Its measured residual activity is 80

Input O=C1NC(=O)/C(=C/c2ccc3c(c2)OC(F)(F)O3)S1 . Output residual activity: 91

The compound O=C1Nc2cc(Br)ccc2/C1=C1/Nc2ccccc2/C1=N\O showed residual activity equal to 90

Reported residual activity for COc1ccc(C(=O)Nc2sc3c(c2C(N)=O)CCCC3)cc1OC was 75

Item: Cc1cc2ncc(-c3ccccc3)nc2cc1C | residual activity: 97
